Record: IC50 reported on human lung cancer strain NCI-H441.
Test readout: IC50 (nM)

Mol smiles	Test readout	Unit string	Value observed
CCO[C@@H]1C[C@H]2C(=O)NC3(CCC3)C(=O)N(C)[C@@H](C3CCCC3)C(=O)N(C)[C@H](C(=O)N(C)C)CC(=O)N(C)[C@@H](CC3CC3)C(=O)N[C@@H]([C@@H](C)CC)C(=O)N(C)CC(=O)N(C)[C@H]3C/C=C\CCN(C3=O)[C@@H](Cc3ccc(F)cc3C)C(=O)N(C)CC(=O)N[C@@H](CCc3cc(F)c(Cl)c(F)c3)C(=O)N2C1	IC50	nM	309
CC[C@H](C)[C@@H]1NC(=O)[C@H](COC)N(C)C(=O)C[C@@H](C(=O)N(C)C)N(C)C(=O)[C@H](C2CCCCC2)N(C)C(=O)C2(CC(C)(C)C2)NC(=O)[C@@H]2C[C@@H](OC(C)C)CN2C(=O)[C@H](CCc2ccc(Cl)c(Cl)c2)NC(=O)CN(C)C(=O)[C@H](Cc2ccc(C(F)(F)F)cc2)N2CC/C=C\C[C@@H](C2=O)N(C)C(=O)CN(C)C1=O	IC50	nM	13.1
CCO[C@@H]1C[C@H]2C(=O)NC3(CCC3)C(=O)N(C)[C@@H](C3CCCC3)C(=O)N(C)[C@H](C(=O)N3CCOCC3)CC(=O)N(C)[C@@H](CC3CCC3)C(=O)N[C@@H]([C@@H](C)CC)C(=O)N(C)CC(=O)N(C)[C@H]3C/C=C\CCN(C3=O)[C@@H](Cc3ccc(C)cc3)C(=O)N(C)CC(=O)N[C@@H](CCc3cc(F)c(C(F)(F)F)c(F)c3)C(=O)N2C1	IC50	nM	26.3
CCO[C@@H]1C[C@H]2C(=O)NC3(CCC3)C(=O)N(C)[C@@H](C3CCCC3)C(=O)N(C)[C@H](C(=O)N(C)C)CC(=O)N(C)[C@@H](Cc3ccccc3C#N)C(=O)N[C@@H]([C@@H](C)CC)C(=O)N(C)CC(=O)N(C)[C@H]3CCCCCN(C3=O)[C@@H](Cc3ccc(F)cc3)C(=O)N(C)CC(=O)N[C@@H](CCc3cc(F)c(C(F)(F)F)c(F)c3)C(=O)N2C1	IC50	nM	73.1
CCO[C@@H]1C[C@H]2C(=O)NC3(CCC3)C(=O)N(C)[C@@H](C3CCCC3)C(=O)N(C)[C@H](C(=O)N(C)C)CC(=O)N(C)[C@@H](Cc3ccc(Cl)c(Cl)c3)C(=O)N[C@@H]([C@@H](C)CC)C(=O)N(C)CC(=O)N(C)[C@H]3CCCCCN(C3=O)[C@@H](Cc3ccc(F)cc3)C(=O)N(C)CC(=O)N[C@@H](CCc3cc(F)c(C(F)(F)F)c(F)c3)C(=O)N2C1	IC50	nM	57.5
CCC[C@H]1C(=O)N[C@@H]([C@@H](C)CC)C(=O)N(C)CC(=O)N(C)[C@H]2C/C=C\CCN(C2=O)[C@@H](Cc2ccc(C)cc2)C(=O)N(C)CC(=O)N[C@@H](CCc2ccc(Cl)c(Cl)c2)C(=O)N2C[C@H](OCC)C[C@H]2C(=O)NC2(CC(C)(C)C2)C(=O)N(C)[C@@H](CC2CCC2)C(=O)N(C)[C@H](C(=O)N(C)C)CC(=O)N1C	IC50	nM	35.7

----------
# Target desc: UniProt P01116
# Sequence (P01116 whole entry): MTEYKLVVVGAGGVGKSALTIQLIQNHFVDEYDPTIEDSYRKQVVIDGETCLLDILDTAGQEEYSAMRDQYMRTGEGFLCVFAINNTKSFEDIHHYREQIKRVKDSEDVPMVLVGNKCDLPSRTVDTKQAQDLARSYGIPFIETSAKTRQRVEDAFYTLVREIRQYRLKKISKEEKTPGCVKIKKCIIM
# Test protocol: Binding to KRAS by surface plasmon resonance (SPR), Single Cycle Kinetics
# Assay setup: SPR Single Cycle Kinetics, GDP-bound KRAS wild-type protein, 1:1 binding model; read-out: KRAS KD
pKd: −log10 of the molar value. *1 amine or outer side, *2 acyl side, *3 side chain or, on linkers, in order; H or OH if unused. Where a SMILES comes first, the peptide text is derived from it. Bridges are numbered along the chain shown (N, C = ends). [ ]: non-standard residue; d: D form. The star is where a group is joined. hPhe(3-Cl-4-CF3) = N[C@@H](CCc1ccc(C(F)(F)F)c(Cl)c1)C(=O)O; X37 = O=C([C@H](Cc1ccc(C(F)(F)F)cc1)N(CC1CCC1)[*:1])[*:2]; NPrPhe(4-CF3) = CCCN[C@@H](Cc1ccc(C(F)(F)F)cc1)C(=O)O; NMeGly(cPent) = CN[C@H](C(=O)O)C1CCCC1; Gly(cPent) = N[C@H](C(=O)O)C1CCCC1; NMeD = CN[C@@H](CC(=O)O)C(=O)O; NMeL = CN[C@@H](CC(C)C)C(=O)O; Morpholide = C1CN(*)CCO1; NMeA = CN[C@@H](C)C(=O)O; Ac5c = NC1(C(=O)O)CCCC1; Aze = O=C(O)[C@@H]1CCN1; Sar = CNCC(=O)O
A collection of compounds and their measured pKd

Compound	pKd
CC[C@H](C)[C@@H]1NC(=O)[C@H](CC(C)C)N(C)C(=O)C[C@@H](C(=O)N2CCOCC2)N(C)C(=O)[C@H](C2CCCC2)N(C)C(=O)C2(CCCC2)NC(=O)[C@@H]2CCCN2C(=O)[C@H](CCc2ccc(C(F)(F)F)c(Cl)c2)NC(=O)CN(C)C(=O)[C@H](Cc2ccc(C(F)(F)F)cc2)N(CC2CCC2)C(=O)[C@@H]2CCN2C(=O)[C@H](C)N(C)C1=O [PP0109] ([NMeL]I[NMeA][Aze][X37][Sar][hPhe(3-Cl-4-CF3)]P[Ac5c][NMeGly(cPent)][NMeD]-Morpholide; lactam N-11)	8.89
CCCN1C(=O)CN(C)C(=O)CN(C)C(=O)[C@H](C2CCCC2)NC(=O)[C@H](CC(C)C)N(C)C(=O)C[C@@H](C(=O)N2CCOCC2)N(C)C(=O)[C@H](C2CCCC2)N(C)C(=O)C2(CCCC2)NC(=O)[C@@H]2CCCN2C(=O)[C@H](CCc2ccc(C(F)(F)F)c(Cl)c2)NC(=O)CN(C)C(=O)[C@@H]1Cc1ccc(C(F)(F)F)cc1 [PP0251] ([NMeL][Gly(cPent)][Sar][Sar][NPrPhe(4-CF3)][Sar][hPhe(3-Cl-4-CF3)]P[Ac5c][NMeGly(cPent)][NMeD]-Morpholide; lactam N-11)	9.60
CC[C@H](C)[C@@H]1NC(=O)[C@H](CC(C)C)N(C)C(=O)C[C@@H](C(=O)N2CCOCC2)N(C)C(=O)[C@H](C2CCCC2)N(C)C(=O)C2(CC(F)(F)C2)NC(=O)[C@@H]2CCCN2C(=O)[C@H](CCc2cc(F)c(C(F)(F)F)c(F)c2)NC(=O)CN(C)C(=O)[C@H](Cc2ccc(C(F)(F)F)cc2)N2CCCC[C@@H](C2=O)N(C)C(=O)CN(C)C1=O	10.40
C#CC[C@H]1C(=O)N[C@@H]([C@@H](C)CC)C(=O)N(C)CC(=O)N(C)[C@H]2C/C=C\CCN(C2=O)[C@@H](Cc2ccc(C(F)(F)F)cc2)C(=O)N(C)CC(=O)N[C@@H](CCc2ccc(C(F)(F)F)c(OC)c2)C(=O)N2CC[C@H]2C(=O)NC2(CCC2)C(=O)N(C)[C@@H](C2CCCC2)C(=O)N(C)[C@H](C(=O)N(C)C)CC(=O)N1C	9.28
CCCN1C(=O)CN(C)C(=O)CNC(=O)[C@H]([C@@H](C)CC)NC(=O)[C@H](CC(C)C)N(C)C(=O)C[C@@H](C(=O)N2CCOCC2)N(C)C(=O)[C@H](C2CCCC2)N(C)C(=O)C2(CCCC2)NC(=O)[C@@H]2CCCN2C(=O)[C@H](CCc2ccc(C(F)(F)F)c(Cl)c2)NC(=O)CN(C)C(=O)[C@@H]1Cc1ccc(C(F)(F)F)cc1 [PP0155] ([NMeL]IG[Sar][NPrPhe(4-CF3)][Sar][hPhe(3-Cl-4-CF3)]P[Ac5c][NMeGly(cPent)][NMeD]-Morpholide; lactam N-11)	9.74
